Data credit: ChEMBL document CHEMBL1201862

system: KM-20L2; test: NCI tumour cell line growth inhibition, 48 h
The source made the active and inactive calls. Cut-off read from the data, not from the text of the source: active = GI50 up to about 1.1 µM and inactive = higher.
We begin with a simple list: items and their reported GI50.

Solved entries:
Cc1cc2c(CC(=O)O)n[nH]c2c(C(=O)O)c1C; > 100 µM (inactive)
C#CCNC(=O)CCC(N)C(=O)O (stereo not drawn); > 100 µM (inactive)
CCC1CCC2CCCC(C)N12 (stereo not drawn); > 100 µM (inactive)
O=c1c2ccccc2oc2nccnc12; > 100 µM (inactive)
[O-][S+]1c2ccccc2N=C(c2cccc3ccccc23)CC1c1cccc2ccccc12 (stereo not drawn); 36.3 µM (inactive)
COc1cccc(/C=N/C23CC4CC(CC(C4)C2)C3)c1; > 100 µM (inactive)

Exam item: Consider the molecule shown here: O=C1Sc2ccccc2C(=O)N2CSCC12 (stereo not drawn) What is its recorded GI50?
Marked response: > 100 µM (inactive)

Exam item: Now the molecule "O=Nc1ccc(O)c2ncccc12"
Marked response: 23.9 µM (inactive)

Exam item: Now the molecule "COC(=O)N/N=C/c1oc(-c2ccccc2)c(-c2ccccc2)c1[N+](=O)[O-]"
Marked response: > 100 µM (inactive)

Exam item: Now the molecule "CCOC(=O)CN(Cn1cncn1)Cn1cncn1"
Marked response: 22.5 µM (inactive)

Exam item: Now the molecule CCCC(Sc1ccccc1)P(=O)(c1ccccc1)c1ccccc1 (stereo not drawn)
Marked response: > 100 µM (inactive)

Exam item: Now the molecule "COc1cc(/C=C(\NC(=O)c2ccccc2)c2nc3c(O)nc(S)nc3[nH]2)cc(OC)c1OC"
Marked response: > 100 µM (inactive)

Exam item: Now the molecule COc1ccc2cc1Oc1ccc(cc1)CC1c3cc4c(cc3CCN1C)Oc1c(OC)cc3c(c1O4)C(C2)N(C)CC3 (stereo not drawn)
Marked response: 2.55 µM (inactive)

Exam item: Now the molecule "CCCCCCCCc1cc2c(O)c(c1)Cc1cc(CCCCCCCC)cc(c1O)Cc1cc(CCCCCCCC)cc(c1O)Cc1cc(CCCCCCCC)cc(c1O)Cc1cc(CCCCCCCC)cc(c1O)Cc1cc(CCCCCCCC)cc(c1O)C2"
Marked response: > 100 µM (inactive)
